The entries below are paired with their reported residual activity.
# test target: Aurora kinase B (Homo sapiens) (UniProt Q96GD4)
# Sequence (Q96GD4 whole entry): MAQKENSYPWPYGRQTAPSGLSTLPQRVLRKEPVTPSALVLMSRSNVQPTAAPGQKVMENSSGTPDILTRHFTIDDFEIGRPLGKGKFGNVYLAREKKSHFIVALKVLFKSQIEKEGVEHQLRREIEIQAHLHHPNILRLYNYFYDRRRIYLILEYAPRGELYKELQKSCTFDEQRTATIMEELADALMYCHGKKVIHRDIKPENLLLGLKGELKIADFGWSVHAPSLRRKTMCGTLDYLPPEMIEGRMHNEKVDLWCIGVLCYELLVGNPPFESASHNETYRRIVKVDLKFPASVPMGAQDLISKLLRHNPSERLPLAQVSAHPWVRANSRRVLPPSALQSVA
# run conditions: at 1 µM
// units = %; emit number, no label

INSERT INTO results (compound, unit_abbreviation, value_observed) VALUES
  ('CCN(CC)C(=O)c1ccc(Nc2nc(OCC3CCCCC3)c3nc[nH]c3n2)cc1', '%', -1),
  ('Cn1cc(/C=C2\C(=O)Nc3ccc(S(N)(=O)=O)cc32)c2ccccc21', '%', 3),
  ('CC(C)n1cnc2c(NCc3ccccc3)nc(NCCCO)nc21', '%', 99),
  ('N#Cc1cnc2cnc(NCc3cccnc3)cc2c1Nc1ccc(F)c(Cl)c1', '%', 3),
  ('c1ccc(-c2n[nH]cc2-c2ccnc3ccccc23)nc1', '%', 75);

Tell me the measured residual activity of "O=[N+]([O-])c1ccc(-c2nc(-c3ccc(F)cc3)c(-c3ccncc3)[nH]2)cc1" , please.
114

Tell me the measured residual activity of "O=C1NC(=O)c2c1c1c3ccccc3[nH]c1c1[nH]c3cc(Br)ccc3c21" , please.
5

Tell me the measured residual activity of "COc1cc2ncc(-c3ccccc3)nc2cc1OC" , please.
83

Tell me the measured residual activity of "COc1cc2ncnc(Nc3ccc(NC(=O)c4ccccc4)cc3)c2cc1OC" , please.
2

Tell me the measured residual activity of "CO[C@H]1[C@@H](OC)C[C@H](C)[C@@H](OC)C2=CC(=O)C=C(NC(=O)/C(C)=C/C=C/[C@H](OC)[C@@H](OC(N)=O)/C(C)=C/[C@@H]1C)C2=O" , please.
72

Tell me the measured residual activity of "N#C/C(=C(\N)Sc1ccc(N)cc1)c1ccccc1C(F)(F)F" , please.
26

Tell me the measured residual activity of "O=c1c2ccccc2[nH]c(=S)n1CCN1CCC(=C(c2ccc(F)cc2)c2ccc(F)cc2)CC1" , please.
95

Tell me the measured residual activity of "Ic1cccc(CSc2nnc(-c3ccncc3)o2)c1" , please.
77

Tell me the measured residual activity of "CC(=O)O/N=C1\C(=C2\C(=O)Nc3cc(Br)ccc32)Nc2ccccc21" , please.
19

Tell me the measured residual activity of O=C1Nc2ccccc2/C1=C1/Nc2ccccc2/C1=N\OCCC(O)CO (centres undefined) , please.
-1
